- assayName: Phase 1a study: pharmacokinetics after oral BID dosing in subjects with advanced solid tumors
- Type: in vivo, human
- conditionNotes: human, in vivo; 100 mg twice daily oral, Cycle 1 Day 21, geometric mean, N = 3; read-out: AUC0-τ
Structures can show the parent of a compound that is named as a salt.
measuredAttribute: AUC
Form entry: enter the amount, then its unit.

Query: Need AUC, item Cc1cc(NC(=O)[C@H](O)c2cc(F)cc(F)c2)ccc1-c1cnc(N)c(C(=O)NC(C)C)c1 [Form A of the hemi-fumarate salt]
Result: 11700 ng·h/mL

====

- assayName: Phase 1a study: pharmacokinetics after oral BID dosing in subjects with advanced solid tumors
- Format: in vivo, human
- conditionNotes: human, in vivo, po, 100 mg, 100 mg twice daily oral, Cycle 1 Day 21, N = 3; interpret with caution, terminal elimination phase not well captured; read-out: t1/2 (converted)
Structures can show the parent of a compound that is named as a salt.
measuredAttribute: half-life (h)
Kindly answer with a numeric value in h, unit omitted.

Query: What value of measured half-life is listed for Cc1cc(NC(=O)[C@H](O)c2cc(F)cc(F)c2)ccc1-c1cnc(N)c(C(=O)NC(C)C)c1 [Form A of the hemi-fumarate salt] ?
Result: 37.6
